- Target or test system: SMAD3 MH1 (human (Fig. 1/3 legends), UniProt P84022 10-136)
- Sequence (P84022 10-136): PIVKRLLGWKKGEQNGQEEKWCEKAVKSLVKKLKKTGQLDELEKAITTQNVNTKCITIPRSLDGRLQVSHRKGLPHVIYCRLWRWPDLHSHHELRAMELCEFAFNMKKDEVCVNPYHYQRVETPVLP
- Assay text: EMSA; EMSA: 7.5 nM Cy5-dsDNA, 200 mM Tris pH 7.2, 100 mM NaCl, 2 mM TCEP, 15 min on ice; 6% PAGE in TG buffer, 4 °C; Hill fit, n = 2
- Condition details: protein: recombinant; tags: N-terminal His tag cleaved (TEV or 3C); chain copies: 2; label: 5'-Cy5
Value kind: Kd (nM)
Give bare numbers, in nM.

Count: 2. Required value per item: Kd.
1. npGC-SBE+ (dsDNA) DNA 1: ATATGGCTCCATAT DNA 2: ATATGGAGCCATAT
2. SBE+ (dsDNA) DNA 1: ATATGTCTGATAT DNA 2: ATATCAGACATAT

Solution:
[660, 366]
